tested.system: recombinant PTPRD (Homo sapiens, UniProt P23468)
Sequence (P23468 21-1912): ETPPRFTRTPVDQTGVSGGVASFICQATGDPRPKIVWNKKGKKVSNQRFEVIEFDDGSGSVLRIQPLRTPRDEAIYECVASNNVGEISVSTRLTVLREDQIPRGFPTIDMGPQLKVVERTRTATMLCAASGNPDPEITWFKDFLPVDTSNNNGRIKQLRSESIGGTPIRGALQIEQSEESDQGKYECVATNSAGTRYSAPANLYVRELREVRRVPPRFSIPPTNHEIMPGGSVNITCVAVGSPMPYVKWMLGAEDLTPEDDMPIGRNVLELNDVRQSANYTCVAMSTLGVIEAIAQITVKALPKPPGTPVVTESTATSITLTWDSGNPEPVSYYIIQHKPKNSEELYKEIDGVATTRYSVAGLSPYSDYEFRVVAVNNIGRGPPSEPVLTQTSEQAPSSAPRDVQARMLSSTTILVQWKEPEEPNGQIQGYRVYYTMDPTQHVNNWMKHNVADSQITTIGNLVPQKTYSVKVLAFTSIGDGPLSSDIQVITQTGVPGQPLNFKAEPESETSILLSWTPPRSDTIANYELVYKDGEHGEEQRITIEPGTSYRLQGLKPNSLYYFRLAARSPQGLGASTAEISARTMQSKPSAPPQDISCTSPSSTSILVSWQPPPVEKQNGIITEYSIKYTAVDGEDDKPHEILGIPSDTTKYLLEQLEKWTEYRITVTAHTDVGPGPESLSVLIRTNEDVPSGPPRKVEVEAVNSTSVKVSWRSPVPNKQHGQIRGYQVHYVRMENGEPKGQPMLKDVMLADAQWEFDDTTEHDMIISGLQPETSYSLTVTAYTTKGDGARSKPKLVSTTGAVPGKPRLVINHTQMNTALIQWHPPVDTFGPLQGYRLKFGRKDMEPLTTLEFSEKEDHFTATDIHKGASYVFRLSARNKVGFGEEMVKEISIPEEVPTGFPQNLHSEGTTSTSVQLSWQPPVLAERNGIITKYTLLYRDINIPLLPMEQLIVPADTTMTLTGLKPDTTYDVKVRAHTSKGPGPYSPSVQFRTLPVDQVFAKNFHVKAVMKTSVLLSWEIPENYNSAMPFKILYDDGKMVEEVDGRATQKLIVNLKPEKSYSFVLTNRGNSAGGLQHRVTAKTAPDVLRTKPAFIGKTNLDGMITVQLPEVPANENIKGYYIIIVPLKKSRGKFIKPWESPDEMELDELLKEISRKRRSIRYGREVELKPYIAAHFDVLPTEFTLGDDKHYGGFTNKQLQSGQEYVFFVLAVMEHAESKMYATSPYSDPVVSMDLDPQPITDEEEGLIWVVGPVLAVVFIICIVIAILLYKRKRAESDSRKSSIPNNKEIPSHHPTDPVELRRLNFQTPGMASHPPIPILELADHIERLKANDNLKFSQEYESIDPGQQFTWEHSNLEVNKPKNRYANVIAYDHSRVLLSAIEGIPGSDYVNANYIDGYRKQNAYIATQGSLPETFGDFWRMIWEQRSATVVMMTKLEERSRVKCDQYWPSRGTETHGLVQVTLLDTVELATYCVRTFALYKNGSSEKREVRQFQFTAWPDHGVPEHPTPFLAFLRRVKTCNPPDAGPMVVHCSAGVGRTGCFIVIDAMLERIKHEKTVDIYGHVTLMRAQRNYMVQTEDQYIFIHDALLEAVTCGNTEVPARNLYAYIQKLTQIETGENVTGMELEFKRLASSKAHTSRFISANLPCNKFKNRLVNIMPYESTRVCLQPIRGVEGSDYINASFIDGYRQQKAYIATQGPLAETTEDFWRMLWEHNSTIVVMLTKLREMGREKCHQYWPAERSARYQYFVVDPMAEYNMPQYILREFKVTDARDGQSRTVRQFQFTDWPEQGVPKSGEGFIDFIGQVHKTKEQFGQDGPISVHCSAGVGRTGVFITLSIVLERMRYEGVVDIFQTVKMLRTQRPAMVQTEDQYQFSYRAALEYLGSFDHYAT
assay.protocol: pNPP hydrolysis by recombinant PTPRD phosphatase
stated.conditions: PTPRD IC50, Table 4; mean (SEM) of three independent experiments; * = instability, no valid triplicate
pIC50: −log10 of the molar value.
quantity: pIC50

As a guide, the following entries are already answered.
molecule | pIC50
COc1c(OCc2ccc(Oc3ccccc3)cc2)cc2c(c1C=O)CC(O)OC2=O (centres unmarked) [Compound 43] | 5.80
COc1c(OCc2c(Cl)cc(Cl)cc2Cl)cc2c(c1C=O)CC(O)OC2=O (centres unmarked) [Compound 42] | 5.61
COc1c(OCc2ccc(C)s2)cc2c(c1C=O)CC(O)OC2=O (centres unmarked) [Compound 46] | 6.04

P. COc1cccc(COc2cc3c(c(C=O)c2OC)CC(O)OC3=O)c1 (centres unmarked) [Compound 31]
Q. COc1c(OCc2ccc(Oc3ccc(F)cc3)cc2)cc2c(c1C=O)CC(O)OC2=O (centres unmarked) [Compound 44]
# input When their pIC50 values are compared, which is larger, P or Q ? Returns: label corresponding to the selected item.
# output Q

* * *

Sequence of the target: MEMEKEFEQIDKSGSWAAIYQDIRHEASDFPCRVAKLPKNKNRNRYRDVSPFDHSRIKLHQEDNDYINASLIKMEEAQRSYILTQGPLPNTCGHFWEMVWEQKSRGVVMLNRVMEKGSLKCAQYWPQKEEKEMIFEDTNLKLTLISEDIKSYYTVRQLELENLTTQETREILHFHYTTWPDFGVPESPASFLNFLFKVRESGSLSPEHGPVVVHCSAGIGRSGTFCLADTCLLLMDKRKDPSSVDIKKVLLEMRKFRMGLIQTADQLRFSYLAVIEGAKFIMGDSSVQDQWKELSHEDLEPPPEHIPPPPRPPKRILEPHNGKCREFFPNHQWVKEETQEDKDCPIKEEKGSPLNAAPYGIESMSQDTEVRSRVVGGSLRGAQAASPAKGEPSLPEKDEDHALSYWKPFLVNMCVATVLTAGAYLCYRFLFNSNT
pIC50: −log10 of the molar value.
quantity: pIC50

compound | quantity | numeric.value
COc1c(OCCC(C)C)cc2c(c1C=O)CC(O)OC2=O (stereo not drawn) | pIC50 | 3.92
COc1c(OCc2ccc(C)cc2)cc2c(c1C=O)CC(O)OC2=O (stereo not drawn) | pIC50 | 3.83
COc1cccc(COc2cc3c(c(C=O)c2OC)CC(O)OC3=O)c1 (stereo not drawn) | pIC50 | 3.69
COc1c(OCc2ccccc2)cc2c(c1C=O)CC(O)OC2=O (stereo not drawn) | pIC50 | 3.77
COc1c(OCC2CCCC2)cc2c(c1C=O)CC(O)OC2=O (stereo not drawn) | pIC50 | 3.92

A. COc1c(OCC2CCC2)cc2c(c1C=O)CC(O)OC2=O (stereo not drawn)
B. CCCCOc1cc2c(c(C=O)c1OC)CC(O)OC2=O (stereo not drawn) [Compound 1, reference compound]
C. COc1c(OCc2ccc(Cl)cc2Cl)cc2c(c1C=O)CC(O)OC2=O (stereo not drawn)
# input Put the items in order so that reported pIC50 rises from first to last. # output: labels, in the requested order
# output B, C, A

* * *

tested.system: PTPRJ (Homo sapiens)
Construct: purchased
Sequence (Q12913 36-1337, species assumed): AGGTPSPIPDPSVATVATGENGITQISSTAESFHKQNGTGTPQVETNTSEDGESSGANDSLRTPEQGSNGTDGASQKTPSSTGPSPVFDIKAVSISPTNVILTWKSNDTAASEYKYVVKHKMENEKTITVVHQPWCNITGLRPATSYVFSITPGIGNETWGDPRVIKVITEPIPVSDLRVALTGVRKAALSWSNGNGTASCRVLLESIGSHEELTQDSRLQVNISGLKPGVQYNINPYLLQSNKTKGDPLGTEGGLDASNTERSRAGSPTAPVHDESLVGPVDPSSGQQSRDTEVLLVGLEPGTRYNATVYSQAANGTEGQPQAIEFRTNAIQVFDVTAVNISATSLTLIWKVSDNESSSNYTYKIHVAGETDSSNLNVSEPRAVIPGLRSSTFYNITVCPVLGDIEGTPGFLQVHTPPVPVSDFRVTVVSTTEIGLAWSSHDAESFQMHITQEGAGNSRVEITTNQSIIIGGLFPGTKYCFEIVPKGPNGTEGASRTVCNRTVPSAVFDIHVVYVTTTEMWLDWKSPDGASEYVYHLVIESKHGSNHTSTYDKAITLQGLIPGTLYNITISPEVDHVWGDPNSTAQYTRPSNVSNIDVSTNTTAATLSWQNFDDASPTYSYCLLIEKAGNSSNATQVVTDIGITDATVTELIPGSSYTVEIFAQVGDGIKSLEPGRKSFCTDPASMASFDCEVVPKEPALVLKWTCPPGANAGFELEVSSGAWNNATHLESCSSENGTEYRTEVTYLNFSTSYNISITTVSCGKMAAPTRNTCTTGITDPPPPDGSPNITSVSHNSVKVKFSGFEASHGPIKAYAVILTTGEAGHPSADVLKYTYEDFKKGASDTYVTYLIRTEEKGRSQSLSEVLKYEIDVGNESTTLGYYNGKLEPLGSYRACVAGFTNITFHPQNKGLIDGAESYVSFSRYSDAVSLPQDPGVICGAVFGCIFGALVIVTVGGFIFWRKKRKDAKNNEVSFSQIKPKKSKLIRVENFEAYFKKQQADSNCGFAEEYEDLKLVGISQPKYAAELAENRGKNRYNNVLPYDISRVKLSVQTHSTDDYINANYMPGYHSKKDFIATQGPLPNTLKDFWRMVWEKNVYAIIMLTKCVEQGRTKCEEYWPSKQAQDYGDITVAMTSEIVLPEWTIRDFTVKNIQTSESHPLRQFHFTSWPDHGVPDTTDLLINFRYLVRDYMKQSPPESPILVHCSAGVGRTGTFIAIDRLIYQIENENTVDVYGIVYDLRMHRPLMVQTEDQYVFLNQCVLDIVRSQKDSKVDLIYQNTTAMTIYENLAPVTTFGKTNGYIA
assay.protocol: pNPP hydrolysis by PTPRJ phosphatase
Format: biochemical
stated.conditions: untitled table after Table 4; mean, SEM in wrapped line
pIC50: −log10 of the molar value.
quantity: pIC50

compound | tested.system | quantity | numeric.value
COc1c(OCCC(C)C)cc2c(c1C=O)CC(O)OC2=O (centres unmarked) | PTPRJ (Homo sapiens) | pIC50 | 4.28
COc1c(OCC2CCCCCC2)cc2c(c1C=O)CC(O)OC2=O (centres unmarked) | PTPRJ (Homo sapiens) | pIC50 | 5.01
COc1c(OCc2ccc(Cl)cc2Cl)cc2c(c1C=O)CC(O)OC2=O (centres unmarked) | PTPRJ (Homo sapiens) | pIC50 | 4.84
COc1c(OCc2ccc(Br)cc2)cc2c(c1C=O)CC(O)OC2=O (centres unmarked) | PTPRJ (Homo sapiens) | pIC50 | 4.52
COc1c(OCc2ccccc2)cc2c(c1C=O)CC(O)OC2=O (centres unmarked) | PTPRJ (Homo sapiens) | pIC50 | 4.33
COc1c(OCc2ccc(Oc3ccccc3)cc2)cc2c(c1C=O)CC(O)OC2=O (centres unmarked) | PTPRJ (Homo sapiens) | pIC50 | 4.55
COc1cccc(COc2cc3c(c(C=O)c2OC)CC(O)OC3=O)c1 (centres unmarked) | PTPRJ (Homo sapiens) | pIC50 | 4.20
COc1c(OCC2CCCCC2)cc2c(c1C=O)CC(O)OC2=O (centres unmarked) | PTPRJ (Homo sapiens) | pIC50 | 6.25

I. COc1c(OCC=C(C)C)cc2c(c1C=O)CC(O)OC2=O (centres unmarked)
II. COc1c(OCCc2ccccc2)cc2c(c1C=O)CC(O)OC2=O (centres unmarked)
# input Select the item whose pIC50 value is smaller, choosing between I and II . API: response body contains the label of the selected item.
# output II

a. COc1c(OCc2ccc(C)cc2)cc2c(c1C=O)CC(O)OC2=O (centres unmarked)
b. COc1c(OCc2c(Cl)cc(Cl)cc2Cl)cc2c(c1C=O)CC(O)OC2=O (centres unmarked)
# input Return label of the item with the larger pIC50. Candidates: a , b . Answer with the label corresponding to your selection.
# output b

* * *

tested.system: PTPRF (Homo sapiens, UniProt P10586)
Sequence (P10586 30-1907, species assumed): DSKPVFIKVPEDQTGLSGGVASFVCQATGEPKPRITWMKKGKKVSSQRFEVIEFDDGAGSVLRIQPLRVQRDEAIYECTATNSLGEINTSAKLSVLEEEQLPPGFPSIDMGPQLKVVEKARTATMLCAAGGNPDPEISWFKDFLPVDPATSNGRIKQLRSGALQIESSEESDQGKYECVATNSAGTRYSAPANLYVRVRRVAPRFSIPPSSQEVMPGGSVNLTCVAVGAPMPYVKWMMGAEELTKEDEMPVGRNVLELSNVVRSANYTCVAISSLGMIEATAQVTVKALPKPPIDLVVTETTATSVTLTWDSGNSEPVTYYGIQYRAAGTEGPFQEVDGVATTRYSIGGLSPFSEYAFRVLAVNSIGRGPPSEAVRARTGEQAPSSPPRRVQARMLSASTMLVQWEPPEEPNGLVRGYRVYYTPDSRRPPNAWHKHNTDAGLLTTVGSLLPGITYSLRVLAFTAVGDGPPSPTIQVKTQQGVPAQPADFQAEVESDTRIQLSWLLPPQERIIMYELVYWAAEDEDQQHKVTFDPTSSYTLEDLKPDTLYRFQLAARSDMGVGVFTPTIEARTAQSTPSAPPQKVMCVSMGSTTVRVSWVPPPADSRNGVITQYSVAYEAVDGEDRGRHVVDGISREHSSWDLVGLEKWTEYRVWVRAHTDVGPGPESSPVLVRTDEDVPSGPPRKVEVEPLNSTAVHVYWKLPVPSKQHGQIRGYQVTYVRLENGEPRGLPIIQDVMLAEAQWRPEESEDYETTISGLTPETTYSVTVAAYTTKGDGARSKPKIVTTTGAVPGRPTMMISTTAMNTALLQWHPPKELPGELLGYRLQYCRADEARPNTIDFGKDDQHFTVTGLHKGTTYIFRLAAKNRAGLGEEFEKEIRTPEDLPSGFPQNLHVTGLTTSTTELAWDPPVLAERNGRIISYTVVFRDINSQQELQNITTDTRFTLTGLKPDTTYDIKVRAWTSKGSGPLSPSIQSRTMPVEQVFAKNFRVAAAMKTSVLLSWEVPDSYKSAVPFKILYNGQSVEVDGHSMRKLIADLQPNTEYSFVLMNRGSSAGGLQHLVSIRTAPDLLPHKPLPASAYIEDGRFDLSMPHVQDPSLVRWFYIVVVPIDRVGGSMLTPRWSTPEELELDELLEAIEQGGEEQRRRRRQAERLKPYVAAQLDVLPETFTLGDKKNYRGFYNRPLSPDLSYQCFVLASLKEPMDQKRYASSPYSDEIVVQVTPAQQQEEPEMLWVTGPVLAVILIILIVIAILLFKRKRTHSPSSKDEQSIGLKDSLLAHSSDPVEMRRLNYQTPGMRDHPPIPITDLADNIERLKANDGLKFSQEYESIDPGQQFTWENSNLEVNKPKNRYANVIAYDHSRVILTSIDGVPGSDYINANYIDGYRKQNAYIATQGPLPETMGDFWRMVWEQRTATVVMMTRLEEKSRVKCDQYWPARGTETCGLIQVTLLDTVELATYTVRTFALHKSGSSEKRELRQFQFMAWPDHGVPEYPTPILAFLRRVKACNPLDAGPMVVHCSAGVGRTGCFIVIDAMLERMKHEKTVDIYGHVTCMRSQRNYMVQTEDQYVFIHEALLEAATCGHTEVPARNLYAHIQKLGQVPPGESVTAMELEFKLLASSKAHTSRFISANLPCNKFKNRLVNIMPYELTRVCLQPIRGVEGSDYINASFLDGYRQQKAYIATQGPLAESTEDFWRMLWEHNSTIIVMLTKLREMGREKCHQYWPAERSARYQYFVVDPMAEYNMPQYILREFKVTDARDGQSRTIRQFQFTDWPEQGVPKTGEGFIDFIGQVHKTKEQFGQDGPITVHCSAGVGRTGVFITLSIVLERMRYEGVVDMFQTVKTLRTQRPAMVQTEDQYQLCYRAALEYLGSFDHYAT
assay.protocol: pNPP hydrolysis by recombinant PTPRF phosphatase
stated.conditions: PTPRF IC50, untitled table after Table 4; mean, SEM in wrapped line
pIC50: −log10 of the molar value.
quantity: pIC50

compound | pIC50
CCCCOc1cc2c(c(C=O)c1OC)CC(O)OC2=O (centres unmarked) [Compound 1, reference compound] | 5.40

I. COc1c(OCc2ccc(Oc3ccccc3)cc2)cc2c(c1C=O)CC(O)OC2=O (centres unmarked) [Compound 43]
II. COc1c(OCc2ccc(C)cc2)cc2c(c1C=O)CC(O)OC2=O (centres unmarked) [Compound 29]
# input Which numeric pIC50 is bigger, that of I or that of II ? Use the label to indicate which entry you chose.
# output I
(I: 5.41, II: 5.18)

1. COc1c(OCCCCc2ccc(Cl)cc2)cc2c(c1C=O)CC(O)OC2=O (centres unmarked) [Compound 53]
2. COc1c(OCc2ccc(Cl)cc2Cl)cc2c(c1C=O)CC(O)OC2=O (centres unmarked) [Compound 40]
# input // pick larger pIC50 from pair: 1 vs 2 Response format: the label of the selected entry.
# output 2

* * *

tested.system: PTPRF (Homo sapiens, UniProt P10586)
assay.protocol: pNPP hydrolysis by recombinant PTPRF phosphatase
stated.conditions: PTPRF IC50, Table 4; mean (SEM) of three independent experiments; * = instability, no valid triplicate
pIC50: −log10 of the molar value.
quantity: pIC50

Solved cases below.
compound | pIC50
COc1c(OCCCCc2ccc(Cl)cc2)cc2c(c1C=O)CC(O)OC2=O (centres unmarked) | 5.25
COc1c(OCc2ccc(Cl)cc2Cl)cc2c(c1C=O)CC(O)OC2=O (centres unmarked) | 5.45
COc1c(OCC=C(C)C)cc2c(c1C=O)CC(O)OC2=O (centres unmarked) | 5.61

I. COc1c(OCC2CCCCC2)cc2c(c1C=O)CC(O)OC2=O (centres unmarked)
II. COc1c(OCCCCc2ccc(O)cc2O)cc2c(c1C=O)CC(O)OC2=O (centres unmarked)
III. COc1c(OCc2ccc(Oc3ccccc3)cc2)cc2c(c1C=O)CC(O)OC2=O (centres unmarked)
# input List the 3 entries from lowest pIC50 to highest pIC50 value. Use the labels to give the requested order.
# output II, III, I
(II: 5.17, III: 5.41, I: 6.12)

* * *

tested.system: PTPRJ (Homo sapiens)
Construct: purchased
assay.protocol: pNPP hydrolysis by PTPRJ phosphatase
Assay type: biochemical
stated.conditions: Table 4; mean (SEM) of three independent experiments; * = instability, no valid triplicate
quantity: IC50 (µM)

Some compounds with known IC50 results, for comparison:
compound | unit.of.measurement | IC50
COc1c(OCC=C(C)C)cc2c(c1C=O)CC(O)OC2=O (centres unmarked) | µM | 17.8
COc1c(OCc2ccc3ccccc3c2)cc2c(c1C=O)CC(O)OC2=O (centres unmarked) | µM | 33.3
COc1c(OCCCCc2ccc(O)cc2O)cc2c(c1C=O)CC(O)OC2=O (centres unmarked) | µM | 55.5
COc1c(OCCC(C)C)cc2c(c1C=O)CC(O)OC2=O (centres unmarked) | µM | 51.9
COc1c(OCc2ccc(Oc3ccccc3)cc2)cc2c(c1C=O)CC(O)OC2=O (centres unmarked) | µM | 28.4
COc1c(OCc2ccc(C)s2)cc2c(c1C=O)CC(O)OC2=O (centres unmarked) | µM | 19.8

a. COc1c(OCC2CCCCCC2)cc2c(c1C=O)CC(O)OC2=O (centres unmarked)
b. CCCCOc1cc2c(c(C=O)c1OC)CC(O)OC2=O (centres unmarked) [Compound 1, reference compound]
c. COc1c(OCCc2ccccc2)cc2c(c1C=O)CC(O)OC2=O (centres unmarked)
# input Ascending by IC50, please. Give the labels in the order specified.
# output a, b, c
